System: COLO 205
Assay: NCI tumour cell line growth inhibition, 48 h
Activity calls are given as the source filed them. Cut-off read from the data, not from the text of the source: active = GI50 up to about 1.1 µM and inactive = higher. Where a SMILES comes first, the peptide text is derived from it. Bridges are numbered along the chain shown (N, C = ends). [ ]: non-standard residue; d: D form. The star is where a group is joined. ξ: configuration not given here. X28 = O=C(/C=C/C=C/C=C/C=C/C=C/C(=O)*)NC1=C(O)CCC1=O; NMeA = CN[C@@H](C)C(=O)O; ξF = NC(Cc1ccccc1)C(=O)O; ξA = CC(N)C(=O)O
Labels: 1 for active, 0 for inactive

COMPOUND	QUALITATIVE_LABEL
CN(C)c1[se]nc2c1c(=O)n(C)c(=O)n2C	0
CC(N/N=C(\S)N1CCCC1)c1cccnn1 (configuration not stated)	1
O=c1c2cc(Br)cc(Br)c2[nH]c(=S)n1-c1ccccc1	0
O=C1/C(=C/c2cccc(Br)c2)CCc2ccccc21	0
O=c1cc(N=P(c2ccccc2)(c2ccccc2)c2ccccc2)n(-c2ccccc2)c(=O)n1-c1ccccc1	0
NC1(C(=O)O)CCCC1 [CYCLOLEUCINE]	0
Cc1ccc(/N=N\c2c(O)c(S(=O)(=O)O)cc3cc(S(=O)(=O)O)ccc23)c(C)c1	0
Cc1ccc(C2NC(=O)c3ccccc3N2)c(C)c1 (configuration not stated)	0
CC1NC(=O)[C@H](C)N(C)C(=O)[C@@H]2CCCN2C(=O)[C@@H](NC(=O)C(Cc2ccccc2)NC(=O)/C=C/C=C/C=C/C=C/C=C/C(=O)NC2=C(O)CCC2=O)COC(=O)[C@@H]2CCCN2C1=O (some centres not stated) (X28-[ξF]SP[NMeA][ξA]P; ester 2-C)	0
CC(C)c1nc(Cl)nc(Cl)c1Cl	1
Cc1c(-c2ccccc2)cc(O)c2nc3ccccc3n12	0
O=C(CC12C3C4C1C1C2C3C41CC(=O)NO)NO (configuration not stated)	0
C=C(C(=O)C(=O)Oc1ccc(Cl)cc1)C(=O)c1ccc(C)cc1	0
Oc1cccnc1/C=N/OCc1ccccc1	0
COc1cccc(-c2cc(O)c3cc(N4CCCC4)ccc3n2)c1	1
CC(O)(/C=C/c1ccccc1)P(=O)(O)c1ccccc1 (configuration not stated)	0
CN(C)CCCN1c2ccc([N+](=O)[O-])cc2CCc2cc([N+](=O)[O-])ccc21	0
CC(/C=N/N(C)C1=NCCCN1)=N/N(C)C1=NCCCN1	0
COc1cc(O)c2c(c1)C(=O)C=C(Cl)C2=O	0
O=C(/C=C/c1cccc([N+](=O)[O-])c1)c1cccnc1	0
C=CCCCCCCCCC(=O)ON(Cc1ccc(O)c(OC)c1)C(=O)C(F)(F)F	0
Nc1ccc2c(c1)C1Oc3ccccc3CC1CO2 (configuration not stated)	0
